src = PubChem BioAssay (NCI)

# System: NCI-H23 lung
# Assay notes: NCI tumour cell line growth inhibition, 48 h
Reported property: TGI (µM)
Express your answer in µM, writing the number without its unit.

Some solved cases for reference:
# input Could you tell me which TGI is on file for `CNC(=O)c1c(NC(=O)c2cccc(C(F)(F)F)c2)sc2c1CCC(=O)C2` ?
# output 7.56

# input Fill in: TGI of `COc1ccc(Nc2ncccc2/C=C/C(=O)c2cc(OC)c(OC)c(OC)c2)cc1` is ___
# output 3.79

Next:
# input Given the molecule `C=CC(C)(C)N[C@@H](C(=O)N1CCC[C@H]1c1nc(-c2nc(C(=O)OCC=C(C)C)c(C)o2)c(C)o1)C(C)C` , what is its reported TGI?
# output 48.1

# input Given the molecule `CSc1ccc(-c2cc(-c3ccc(NC(=O)CCCN4CCCC4)cc3)nc(-c3ccc(NC(=O)CCCN4CCCC4)cc3)c2)cc1` , what is its reported TGI?
# output 3.16

# input What does the data say about its TGI? Entry: `COc1cc(C(=O)/C=C/c2c(-c3ccc(F)cc3)nc3sc(C)cn23)cc(OC)c1OC`
# output 8.87

# input Quick one: TGI of `O=C1c2ccccc2-c2nccc3cc(Cl)nc1c23` ?
# output 2.4
